# target-or-test-system: thrombin (Homo sapiens, UniProt P00734)
Counter-ions that a name gives are not always drawn.
experimental-readout: Ki

### Prompt Given the compound CCOC(=O)N1CCN(C(=O)[C@H](Cc2cccc(NC(=N)N)c2)NS(=O)(=O)c2c(C(C)C)cc(C(C)C)cc2C(C)C)CC1 [Example 1, hydrochloride] , what is its reported Ki?
### Response ≥ 12 µM
